- Test system: TT2609-C02 (Thyroid Gland Carcinoma)
- PROTOCOL_NOTES: combination Emax (second highest fraction inhibited in the dose matrix, 72 h); higher = more inhibition; extreme values may be limits of the assay

COMPOUND | combination Emax
Cc1c2c(nn1C)CSCc1cc(n(C)n1)CSc1cc(c3ccccc3c1)OCCCc1c(C(=O)O)n(C)c3c-2c(Cl)ccc13 [AZD5991] + CC1(C)CCC(CN2CCN(c3ccc(C(=O)NS(=O)(=O)c4ccc(NCC5CCOCC5)c([N+](=O)[O-])c4)c(Oc4cnc5[nH]ccc5c4)c3)CC2)=C(c2ccc(Cl)cc2)C1 [Venetoclax] (first compound max 1 µM, 7x7, partner max 1 µM) | 0.178
CC1(C)CCC(CN2CCN(c3ccc(C(=O)NS(=O)(=O)c4ccc(NCC5CCOCC5)c([N+](=O)[O-])c4)c(Oc4cnc5[nH]ccc5c4)c3)CC2)=C(c2ccc(Cl)cc2)C1 [Venetoclax] + Cc1cc2ncnn2cc1Nc1ncc2c(n1)n(C1CCOCC1)c(=O)n2C [AZD7648] (first compound max 1 µM, 7x7, partner max 10 µM) | 0.341
CN(CCO)CC[C@H](CSc1ccccc1)Nc1ccc(S(=O)(=O)NC(=O)c2ccc(N3CCC([C@@H](O)c4ccccc4-c4ccc(Cl)cc4)CC3)cc2)cc1S(=O)(=O)C(F)(F)F [AZD4320] + Cn1cnc2c(F)c(Nc3ccc(Br)cc3Cl)c(C(=O)NOCCO)cc21 [Selumetinib] (first compound max 1 µM, 7x7, partner max 3 µM) | 0.546
COc1cccc(OCCCN)c1-c1cc(Nc2cnc(C#N)cn2)n[nH]1 [Prexasertib] + CN(C)CCCOc1ccc(-c2ccc3ncc4c(c3c2)n(C2CCOCC2)c(=O)n4C)cn1 [AZD0156] (first compound max 1 µM, 7x7, partner max 1 µM) | 0.335
CCc1c2c(nc3ccc(O)cc13)-c1cc3c(c(=O)n1C2)COC(=O)[C@]3(O)CC [SN-38] + CN(C)CCCOc1ccc(-c2ccc3ncc4c(c3c2)n(C2CCOCC2)c(=O)n4C)cn1 [AZD0156] (first compound max 0.3 µM, 7x7, partner max 1 µM) | 0.441
CC(=O)c1c(C)c2cnc(Nc3ccc(N4CCNCC4)cn3)nc2n(C2CCCC2)c1=O [Palbociclib] + CC1(C)CCC(CN2CCN(c3ccc(C(=O)NS(=O)(=O)c4ccc(NCC5CCOCC5)c([N+](=O)[O-])c4)c(Oc4cnc5[nH]ccc5c4)c3)CC2)=C(c2ccc(Cl)cc2)C1 [Venetoclax] (first compound max 10 µM, 7x7, partner max 1 µM) | 0.275
